system: L1210; assay: In vitro inhibitory effect on growth of L1210 cells; (10E-6); type: functional, cell-based; conditions: Mus musculus
pIC50: −log10 of the molar value.
readout type: pIC50

compound	system under test	recorded measurement
N=c1c2ccn(C3O[C@H](CO)[C@@H](O)[C@H]3O)c2ncn1N (stereo partly specified)	L1210	5.07

* * *

tested on: L1210; experiment: In vitro inhibitory effect on growth of L1210 cells; 1.5*10e-3; assay type: functional, cell-based; settings: Mus musculus

structure string	system under test	IC50, µM
N=c1ccn([C@@H]2O[C@H](CO)[C@@H](O)[C@@H]2O)c(=O)n1N	L1210	1530

# credit: ChEMBL document CHEMBL1122632
